Target: Na+-dependent bile acid transport system (Oryctolagus cuniculus)
Construct: brush-border membrane vesicles from the ileum of rabbits; from tissue; host or cells: terminal ileum of male New Zealand rabbits, brush-border membrane vesicles
Sequence (Q28727 1-347): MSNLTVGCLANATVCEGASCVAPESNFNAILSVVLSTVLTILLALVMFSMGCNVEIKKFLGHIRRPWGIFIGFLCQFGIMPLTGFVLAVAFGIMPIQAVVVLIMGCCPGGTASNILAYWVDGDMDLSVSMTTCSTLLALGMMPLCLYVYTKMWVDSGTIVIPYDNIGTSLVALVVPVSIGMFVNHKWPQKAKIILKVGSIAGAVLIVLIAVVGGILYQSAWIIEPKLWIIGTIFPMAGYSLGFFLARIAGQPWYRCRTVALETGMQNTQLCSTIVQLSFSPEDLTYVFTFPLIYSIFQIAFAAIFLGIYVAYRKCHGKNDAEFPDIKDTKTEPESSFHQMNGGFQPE
Assay: Inhibition of Na+-dependent [3H]taurocholate absorption into brush-border membrane vesicles of the ileum
Format: biochemical, rabbit
Where a name gives a salt, the structure may show the parent alone.
What IC25 was measured for each of the following?
Numbers only, in µM.

Provide IC25 for all items below, preserving their order.
1. CC(C)c1cc(-c2ccc(F)cc2)c(OC[C@@H](O)C[C@@H](O)CC(=O)NCCCO[C@H]2CC[C@@]3(C)[C@@H](C2)C[C@@H](O)[C@@H]2[C@@H]3C[C@H](O)[C@]3(C)[C@@H]([C@H](C)CCC(=O)O)CC[C@@H]23)c(C(C)C)c1 [Example 82 (Na salt)]
2. CC(C)c1nc(-c2ccccc2)cc(-c2ccc(F)cc2)c1/C=C/[C@@H](O)C[C@@H](O)CC(=O)NCCO[C@H]1CC[C@@]2(C)[C@@H](C1)C[C@@H](O)[C@@H]1[C@@H]2C[C@H](O)[C@]2(C)[C@@H]([C@H](C)CCC(=O)NCCS(=O)(=O)O)CC[C@@H]12 [Example 115 (Na salt)]

[17, 12]

====

Target: Na+-dependent bile acid transport system (Oryctolagus cuniculus)
Construct: brush-border membrane vesicles from the ileum of rabbits; from tissue; host or cells: terminal ileum of male New Zealand rabbits, brush-border membrane vesicles
Sequence (Q28727 1-347): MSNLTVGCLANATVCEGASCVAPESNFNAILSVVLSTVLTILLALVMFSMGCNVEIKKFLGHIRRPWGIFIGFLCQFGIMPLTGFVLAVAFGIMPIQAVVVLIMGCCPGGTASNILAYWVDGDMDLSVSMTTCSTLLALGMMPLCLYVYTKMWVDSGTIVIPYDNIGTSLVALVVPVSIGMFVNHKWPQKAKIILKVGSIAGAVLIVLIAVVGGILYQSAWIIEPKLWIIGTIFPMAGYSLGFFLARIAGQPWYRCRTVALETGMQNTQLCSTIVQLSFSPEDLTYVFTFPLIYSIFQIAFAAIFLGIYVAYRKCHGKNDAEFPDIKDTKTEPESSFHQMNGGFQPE
Assay: Inhibition of Na+-dependent [3H]taurocholate absorption into brush-border membrane vesicles of the ileum
Assay type: biochemical, rabbit
Conditions: read-out: IC50
Where a name gives a salt, the structure may show the parent alone.
Sorting guide: entries reporting IC50 beneath 50 µM go in the t pile, the rest go in the f pile.

>  <MOLECULE>
CC(C)c1nc(-c2ccccc2)cc(-c2ccc(F)cc2)c1/C=C/[C@@H](O)C[C@@H](O)CC(=O)NCCO[C@H]1CC[C@@]2(C)[C@@H](C1)C[C@@H](O)[C@@H]1[C@@H]2C[C@H](O)[C@]2(C)[C@@H]([C@H](C)CCC(=O)NCC(=O)O)CC[C@@H]12

>  <GROUP LABEL>
t

$$$$
>  <MOLECULE>
C[C@H](CCC(=O)O)[C@H]1CC[C@H]2[C@@H]3[C@H](O)C[C@@H]4C[C@@H](OCCNC(=O)[C@@H](C)NC(=O)[C@@H](C)NC(=O)OCc5ccccc5)CC[C@]4(C)[C@H]3C[C@H](O)[C@]12C

>  <GROUP LABEL>
f

$$$$
>  <MOLECULE>
CC(C)c1nc(-c2ccccc2)cc(-c2ccc(F)cc2)c1/C=C/[C@@H](O)C[C@@H](O)CC(=O)NCCCO[C@@H]1CC[C@@]2(C)[C@@H](C1)C[C@@H](O)[C@@H]1[C@@H]2C[C@H](O)[C@]2(C)[C@@H]([C@H](C)CCC(=O)O)CC[C@@H]12

>  <GROUP LABEL>
f

$$$$
>  <MOLECULE>
CC(C)c1nc(-c2ccccc2)cc(-c2ccc(F)cc2)c1/C=C/[C@@H](O)C[C@@H](O)CC(=O)NCCO[C@H]1CC[C@@]2(C)[C@@H](C1)C[C@@H](O)[C@@H]1[C@@H]2C[C@H](O)[C@]2(C)[C@@H]([C@H](C)CCC(=O)NCCS(=O)(=O)O)CC[C@@H]12 [Example 115 (Na salt)]

>  <GROUP LABEL>
t

$$$$

# check: IC50 < 50 µM for COC(=O)CC[C@@H](C)[C@H]1CC[C@H]2[C@@H]3[C@H](O)C[C@@H]4C[C@@H](OCCNC(=O)[C@@H](C)NC(=O)[C@@H](C)NC(=O)OCc5ccccc5)CC[C@]4(C)[C@H]3C[C@H](O)[C@]12C
f

# check: IC50 < 50 µM for CC(C)c1cc(-c2ccc(F)cc2)c(OC[C@@H](O)C[C@@H](O)CC(=O)NCCO[C@H]2CC[C@@]3(C)[C@@H](C2)C[C@@H](O)[C@@H]2[C@@H]3C[C@H](O)[C@]3(C)[C@@H]([C@H](C)CCC(=O)O)CC[C@@H]23)c(C(C)C)c1
t

# check: IC50 < 50 µM for CC(C)c1cc(-c2ccc(F)cc2)c(OC[C@@H](O)C[C@@H](O)CC(=O)NCCCO[C@H]2CC[C@@]3(C)[C@@H](C2)C[C@@H](O)[C@@H]2[C@@H]3C[C@H](O)[C@]3(C)[C@@H]([C@H](C)CCC(=O)O)CC[C@@H]23)c(C(C)C)c1 [Example 82 (Na salt)]
t
